System: NCI-H23 lung
Experimental protocol: NCI-60 one-dose screen, 48 h (100 = growth as untreated, 0 = no growth, -100 = all killed)
Setup conditions: 10 µM unless noted
About 83,000 compounds went through this panel and 20% of them were active in at least one assay; those are over-represented in the sample as a whole. Calls of active or inactive are those of the source. Rule for the calls: active = growth percent below 10; inactive = the rest.
Metric name: growth

Examples with their reported growth follow.
[[record]]
compound = "O=C(c1ccc(O)c(Br)c1)c1ccc(O)c(Br)c1"
metric_name = "growth"
observed_measurement = "103% (inactive)"

[[record]]
compound = "CC(C)(C)CC(C)(C)c1ccc(OCCOCCSC(=N)N)cc1"
metric_name = "growth"
observed_measurement = "30.8% (inactive)"

[[record]]
compound = "CCCCC(C=O)(C=C=C(C)C)CC (centres undefined)"
metric_name = "growth"
observed_measurement = "112% (inactive)"


Now consider a different compound.
Problem: I have this compound here, Cc1ccccc1NC(=O)Cc1csc2[n+]1C(=O)/C(=C/c1ccc([N+](=O)[O-])cc1)S2 , and I need its recorded growth.
Solution: 93.1% (inactive)
